assaySystem: recombinant human soluble γ2 δ3TCR-FC (wild type) (human) (UniProt B7Z8K6)
experiment: Octet, γ2δ3TCR-hFc captured on anti-human Fc biosensor; row antibody δ3-58 taken as first (saturating), column antibody as second; 5 µg/mL each; note: unit not given here
Entries and their paired-competition value (Octet signal of the second antibody per paragraph 256) values follow.
// keep it numeric: no unit symbol after the value

// lookup paired-competition value (Octet signal of the second antibody per paragraph 256) for δ3-23 (antibody, V domains shown) VH: EVQLQQSGAELVKPGASVKLSCTASGFNIRDTYMHWVKQRPEQGLEWIGRIDPANGNTKYDPKFRGKATITADTSSNTAYLQLSSLTSEGTAVYYCSEGIYFDYWGQGTTLTVSS VL: DILLTQSPAILSVSPGERVSFSCRASQNIGTIIHWYQQRANGSPRLLIKYASESISGIPSRFSGSGSGTDFTLSINSVESEDIADYYCQQSNSWPYTFGGGTKLEIKR
0.07

// lookup paired-competition value (Octet signal of the second antibody per paragraph 256) for δ3-42 (antibody, V domains shown) VH: DVQLQESGPDLVKPSQSLSLTCTVTGYSITSGYNWHWIRQFPGNKLEWMGYIHYSGNTDYNPSLRSRISITRDTSKNQFFLHLNSVPTEDTATYYCARSGITTDWYFDVWGAGTTVTVSS VL: QIVLSQSPAILSASPGEKVTMTCRASSSVNYMHWYQQKPGSSPKPWIYATSNLASGVPARFSGSGSGTSYSLTISKVEAEDAATYYCQQWSSHQPTFGAGTKLELK
0.03

// lookup paired-competition value (Octet signal of the second antibody per paragraph 256) for δ3-08 (antibody, V domains shown) VH: EEKLEESGGGLVQPGGSMKLSCVASGFIFSIYWMNWVRQSPEKGLEWVGQIRLKSDNYATHYAESVKGRFTISRDDSKSSVYLQMNNLRAEDTGIYYCMYYGSSYERFAYWGQGTLVTVSA VL: DIQMIQSPASLSVSVGETVTITCRASENIYSNLAWYQQKQGKSPQLLVYVATKLADGVPSRFSGSGSGTQYSLKINSLQSEDFGSYYCQHFWGTPPWTFGGGTKLEIK
0.04
